Assay remarks: Stability in rat plasma (enzymatic hydrolysis), LC-MS/MS
Format: in vitro ADME, Sprague-Dawley male rats
Assay setup: male, Sprague-Dawley, 1 µM analyte, 37 °C, incubation 0-120 min, read-out: T 1/2 Rat plasma
Recorded metric: half-life at 1 µM

CC(C(=O)NCCOc1ccc2oc(=O)ccc2c1)c1ccc(-c2ccccc2)c(F)c1 (stereo not shown)	> 4 h
O=C(c1ccccc1)c1ccc2n1CCC2C(=O)NCCOc1ccc2ccc(=O)oc2c1 (stereo not shown)	> 4 h
CCOC(=O)[C@H](CCc1ccccc1)N[C@@H](C)C(=O)N1CCC[C@H]1C(=O)O [Enalapril, enalapril, reference compound]	0.367 h

Give the reported half-life at 1 µM for this molecule. `COc1ccc2c(c1)c(CC(=O)NCCOc1ccc3ccc(=O)oc3c1)c(C)n2C(=O)c1ccc(Cl)cc1` > 4 h
